# protocol-description: Plasma protein binding, centrifugal ultrafiltration
# Format: in vitro ADME
# stated-conditions: Sprague-Dawley, rat, Fraction bound to plasma protein, 5 μg/mL, mean ± SD
experimental-readout: fraction unbound at 1 h, 5 μg/mL
// no unit string in output, number only

Task: Tell me measured fraction unbound at 1 h, 5 μg/mL for `Oc1c(Br)cc(Cl)c2cccnc12` please.
Result: 0.09

----------
# protocol-description: Stability in plasma
# Type: in vitro ADME
# stated-conditions: CD-1, mouse
experimental-readout: recovery at 4 h, 1 μM (%)
Give the number; % is assumed, so skip it.

Task: Tell me measured recovery at 4 h, 1 μM for Oc1c(Br)cc(Cl)c2cccnc12 [CLBQ14, 7-bromo-5-chloroquinolin-8-ol] please.
Result: 97.6

----------
# protocol-description: Stability in plasma
# Assay type: in vitro ADME
# stated-conditions: rhesus, monkey
experimental-readout: recovery at 4 h, 1 μM (%)
Give the number; % is assumed, so skip it.

Task: Tell me measured recovery at 4 h, 1 μM for `Oc1c(Br)cc(Cl)c2cccnc12` please.
Result: 105

----------
# protocol-description: Microsome metabolic stability and predicted hepatic clearance
# Assay type: in vitro ADME
# stated-conditions: CD-1, mouse, liver microsomes, pH 7.4
experimental-readout: remaining at 1 h, 3 µM (%)
Give the number; % is assumed, so skip it.

Task: Tell me measured remaining at 1 h, 3 µM for Oc1c(Br)cc(Cl)c2cccnc12 [CLBQ14, 7-bromo-5-chloroquinolin-8-ol] please.
Result: 3.7

----------
# protocol-description: Microsome metabolic stability and predicted hepatic clearance
# Type: in vitro ADME
# stated-conditions: Sprague-Dawley (SD), rat, liver microsomes, pH 7.4
experimental-readout: remaining at 1 h, 3 µM (%)
Give the number; % is assumed, so skip it.

Task: Tell me measured remaining at 1 h, 3 µM for `Oc1c(Br)cc(Cl)c2cccnc12` please.
Result: 26.8

Entry source: paper PMC7127848
